- Test details: NCI Yeast Anticancer Drug Screen. Data for the sgs1 mgt1 strain (AID 161);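 note: 0% = growth of cultures given vehicle only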
- Measurement conditions: S. cerevisiae sgs1 mgt1 strain, at 50.0 µM, hits give high values
This is part of a sample that, as a whole, favours compounds with a hit. Of some 79,000 tested, about 15% had one in any assay.
# growth inhibition annotations
Record the value in %, omitting the unit from your answer.

1. C[C@@H]1C(N2CCCC2)=CC(=O)OC1c1ccccc1 (stereo partly specified)    11.3
2. COc1ccc(C2C(C#N)=C(N)NC(=O)C2C(N)=O)cc1 (stereo unspecified)    -16.8
3. COC(=O)c1c(-c2ccccc2)cn(C)c1C    12.8

Please turn your attention to the following entry.
Measured growth inhibition of CC1=NN(C(=O)c2cccnc2)C(=O)C1N=Nc1ccc(S(=O)(=O)Nc2ccccn2)cc1 (stereo unspecified) : 4.75

###

- Test details: NCI Yeast Anticancer Drug Screen. Data for the sgs1 mgt1 strain (AID 161);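 note: 0% = growth of cultures given vehicle only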
- Measurement conditions: S. cerevisiae sgs1 mgt1 strain, at 50.0 µM, hits give high values
- Description: Growth inhibition of yeast strains with defined genetic alterations is measured as a screen for potential anti-cancer activity. Selected strains with alterations in DNA damage repair or cell cycle control were exposed to compounds and growth inhibition was measured relative to vehicle treated controls. The strain used in this assay is sgs1 mgt1
Compounds without any hit were thinned out: in the full panel of roughly 79,000, 15% have a hit.
# growth inhibition annotations
Record the value in %, omitting the unit from your answer.

Look over these answered cases.
1) NC(CC(=O)OCc1ccccc1)C(=O)OCc1ccccc1 (stereo not drawn)    16.1
2) C=CC1OCC2(CO1)COC(C=C)OC2 (stereo not drawn)    2.4
3) O=c1c2cnccc2cc2n1CCc1c-2[nH]c2ccccc12    88.8

Measured growth inhibition of `O=C(COc1ccc(Cl)cc1C(=O)O)NCc1cccc2ccccc12` : 41.8

Measured growth inhibition of `CC(=O)N(C)c1cccc2cccc(S(=O)(=O)O)c12` : -17.1

Measured growth inhibition of `CCCCCCCC/C=C/CCCCCCCC(=O)N(C)CC(=O)O` : 10.8

Measured growth inhibition of `Nc1ccc(C(=O)NCCCC(=O)O)cc1` : -1.75

Measured growth inhibition of `Cc1ccc(Cl)cc1NC(=O)/C=C/c1ccccc1` : 6.4

Measured growth inhibition of O=C(c1ccccc1)C(c1ccccc1)C1(O)C(=O)Nc2ccc(Br)cc21 (stereo not drawn) : -0.15

Measured growth inhibition of `CNC(=O)Nc1nnnc2ccccc12` : -4.05

Measured growth inhibition of `c1ccc(CNn2nnc3ccccc32)cc1` : 7.25

Measured growth inhibition of CC(Oc1ccc([N+](=O)[O-])cc1)c1ccccc1 (stereo not drawn) : -3.7

Measured growth inhibition of `COc1cc(Cl)ccc1NC(=O)COc1ccc(Cl)cc1` : -12.8

###

- Test details: NCI Yeast Anticancer Drug Screen. Data for the cln2 rad14 strain (AID 165);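 note: 0% = growth equal to vehicle treated cultures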
- Measurement conditions: S. cerevisiae cln2 rad14 strain, at 50.0 µM, hits give high values
About 79,000 compounds went through this panel and 15% of them were active in at least one assay; those are over-represented in the sample as a whole.
Measured endpoint: growth inhibition (%)
Record the value in %, omitting the unit from your answer.

Look over these answered cases.
1. O=C(C[n+]1ccccc1)N/N=C(/CCC(=O)N(Cc1ccccc1)Cc1ccccc1)CC(=O)c1ccccc1    0.85
2. COc1ccc(C(O)C2CC(=O)NN=C2C)cc1OC (configuration not stated)    6.7
3. CCCCN(CCCC)CCNC(c1ccc(Cl)cc1)c1ccc(OC)cc1 (configuration not stated)    -7.85
4. c1ccc(CC2CO2)cc1 (configuration not stated)    -15.2
5. Cc1ccc(C)c(NC(=O)Nc2ccc(Nc3ccccc3)cc2)c1    -18.4

Measured growth inhibition of CCCCCCCCCCCCCCCCCC(=O)OCC(COC(C)=O)OC(C)=O (configuration not stated) : -46.1

Measured growth inhibition of `CC(C)(O)C#Cc1ccccc1` : -24.8

Measured growth inhibition of CC(=O)OC1CCC2(C)C(CCC34OC23CCC2(C)C(C(C)CCCC(C)C)CCC24C)C1(C)C (configuration not stated) : 1

Measured growth inhibition of `CCN(CC)CCOCCO` : 11.7

Measured growth inhibition of `S=c1[nH]n(-c2ccccc2)c(=S)s1` : -1.15

Measured growth inhibition of `ClCC(OCc1ccccc1)OCc1ccccc1` : -36

Measured growth inhibition of `O=C1CN(/N=C/c2ccc(-c3cccc(C(F)(F)F)c3)o2)C(=O)N1` : -19.3
